# experimental_system: FAAH (Mus musculus)
# assay_comment: In vitro competitive activity-based protein profiling (FP-Rh), mouse FAAH
# Assay type: biochemical
# Set-up: from tissue; host or cells: mouse brain membrane fraction
# recorded_conditions: Table 1, mouse proteome, 30 min preincubation at 37° C.
measured_quantity: IC50

Sample answers from the record:
| molecule | measured_value |
| --- | --- |
| O=C(ON1C(=O)CCC1=O)N1CCN(C(c2ccc(Cl)cc2)c2ccc(Cl)cc2)CC1 | > 10000 nM |
| COc1ccc(N2CCN(C(=O)ON3C(=O)CCC3=O)CC2)cc1 | > 10000 nM |

Qu. I have this molecule here, CCCC1CC(=O)N(OC(=O)N2CCN(C(c3ccc(Cl)cc3)c3ccc(Cl)cc3)CC2)C1=O (stereo not shown) , and I need its recorded IC50.
Ans. > 10000 nM

Qu. Subsequent entry: "O=C(ON1C(=O)CN(Cc2ccccc2)C1=O)N1CCC(CCc2ccc(Cl)cc2)CC1"
Ans. < 100 nM

Qu. Queued: "CN(Cc1cccc(-c2cccnc2)c1)C(=O)ON1C(=O)CCC1=O"
Ans. > 10000 nM

Qu. What about this molecule? O=C1CCC(=O)N1OC(=O)N1CCCCC1Cc1ccccc1 (stereo not shown)
Ans. > 10000 nM

Qu. Queued: "O=C(ON1C(=O)CCC1=O)N1CC[C@H](OCc2ccccc2)C1"
Ans. > 10000 nM

Qu. And the next one, "C#CCCC(=O)N1CCN(C(=O)ON2C(=O)CCC2=O)CC1" ?
Ans. > 10000 nM

Qu. Same again, this time with "COc1ccc(N2CCN(C(=O)ON3C(=O)c4ccccc4C3=O)CC2)cc1"
Ans. 100 to 1000 nM

Qu. "O=C(CN1CCN(C(=O)ON2C(=O)CCC2=O)CC1)Nc1cc(C(F)(F)F)ccc1Cl" ?
Ans. 1000 to 10000 nM

Qu. Next molecule: "O=C(ON1C(=O)CCC1=O)N1CCCCC1"
Ans. > 10000 nM

Qu. Another molecule to check: "CN(C)C(=O)ON1C(=O)CNC1=O"
Ans. > 10000 nM

Qu. Entry to check: "O=C(ON1C(=O)CCC1=O)N1CCCC1"
Ans. > 10000 nM

Qu. Field entry: "O=C(ON1C(=O)CNC1=O)N1CCN(C(c2ccc(Cl)cc2)c2ccc(Cl)cc2)CC1"
Ans. > 10000 nM

Qu. Again, but for CC1CC(=O)N(OC(=O)N2CCN(C(c3ccc(Cl)cc3)c3ccc(Cl)cc3)CC2)C1=O (stereo not shown)
Ans. > 10000 nM

---

# experimental_system: ABHD6 (Mus musculus)
# assay_comment: In vitro competitive activity-based protein profiling (FP-Rh), mouse ABHD6
# Format: biochemical
# Parameters: from tissue; host or cells: mouse brain membrane fraction
# recorded_conditions: Table 1, mouse proteome, 30 min preincubation at 37° C.
Reported values of IC50 for individual entries

Answered examples (5):
| compound | experimental_system | IC50 |
| --- | --- | --- |
| CCCCCCCC/C=C\CCCCCCCCNC(=O)ON1C(=O)CCC1=O | ABHD6 (Mus musculus) | 1000 to 10000 nM |
| O=C1CCC(=O)N1OC(=O)N1CCCCC1c1ccccc1 (stereo not shown) | ABHD6 (Mus musculus) | > 10000 nM |
| O=C(ON1C(=O)CCC1=O)N1CCN(Cc2ccccc2Oc2ccccc2)CC1 | ABHD6 (Mus musculus) | < 100 nM |
| COc1ccc(N2CCN(C(=O)ON3C(=O)C4CCCCC4C3=O)CC2)cc1 (stereo not shown) | ABHD6 (Mus musculus) | < 100 nM |
| O=C1CCC(=O)N1OC(=O)N1CCCCC1Cc1ccccc1 (stereo not shown) | ABHD6 (Mus musculus) | > 10000 nM |

Qu. Would you kindly share the measured IC50 for "O=C(ON1C(=O)CCC1=O)N1CCC(CCc2ccc(Cl)cc2)CC1" ?
Ans. < 100 nM

Qu. Subsequent entry: CCCC1CC(=O)N(OC(=O)N2CCN(C(c3ccc(Cl)cc3)c3ccc(Cl)cc3)CC2)C1=O (stereo not shown)
Ans. 100 to 1000 nM

Qu. Then O=C(ON1C(=O)CC(c2ccccc2)C1=O)N1CCCCC1 (stereo not shown) ?
Ans. > 10000 nM

Qu. Can you check "O=C(NCCc1ccc(Oc2ccccc2)cc1)ON1C(=O)CCC1=O" next?
Ans. > 10000 nM

Qu. Next up: "C#CCCCCNC(=O)ON1C(=O)CCC1=O"
Ans. 1000 to 10000 nM

---

# experimental_system: ABHD6 (Mus musculus)
# assay_comment: In vitro competitive ABPP, % inhibition at fixed concentration, ABHD6
# Format: biochemical
# Design: from tissue
measured_quantity: inhibition at 1 µM

In the examples that follow, each entry is paired with its recorded inhibition at 1 µM.
| test_smiles | inhibition at 1 µM |
| --- | --- |
| Cn1ncc2cc(C(c3ccc4c(cnn4C)c3)N3CCN(C(=O)ON4C(=O)CCC4=O)CC3)ccc21 | 25 to 75% |
| O=C(ON1C(=O)CCC1=O)N1CCN(Cc2c(Cl)cccc2N2CCOCC2)CC1 | 25 to 75% |

Qu. Look up inhibition at 1 µM for this compound: "O=C(ON1C(=O)CCC1=O)N1CCN(Cc2cccc(Cl)c2C(=O)N2CCOCC2)CC1"
Ans. < 25%

Qu. Also "CC(C)c1cc(N2CCCC2)ccc1CN1CCN(C(=O)ON2C(=O)CCC2=O)CC1" , if possible.
Ans. 25 to 75%

Qu. Next compound up: "Cc1cc(-c2ccc(CN3CCN(C(=O)ON4C(=O)CCC4=O)CC3)c(F)c2)cc(C)n1"
Ans. 25 to 75%

---

# experimental_system: ABHD6 (Mus musculus)
# Sequence (Q8R2Y0 1-336): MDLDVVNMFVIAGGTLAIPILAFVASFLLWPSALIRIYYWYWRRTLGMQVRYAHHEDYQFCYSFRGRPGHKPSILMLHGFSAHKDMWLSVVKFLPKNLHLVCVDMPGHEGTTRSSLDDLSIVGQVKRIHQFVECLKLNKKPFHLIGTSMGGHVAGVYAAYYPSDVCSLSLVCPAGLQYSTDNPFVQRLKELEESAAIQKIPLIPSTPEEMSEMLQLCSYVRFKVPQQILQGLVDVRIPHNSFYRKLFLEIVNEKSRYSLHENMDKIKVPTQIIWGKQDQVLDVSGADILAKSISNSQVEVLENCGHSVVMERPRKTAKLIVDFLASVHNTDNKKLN
# assay_comment: In vitro competitive activity-based protein profiling (FP-Rh), mouse ABHD6
# Assay type: biochemical
# Parameters: from tissue; host or cells: mouse brain membrane fraction
# recorded_conditions: Table 1, mouse proteome, 30 min preincubation at 37° C.
measured_quantity: IC50

Would you please look over these solved cases?
| molecule | IC50 |
| --- | --- |
| CN(Cc1cccc(-c2ccncc2)c1)C(=O)ON1C(=O)CCC1=O [Example 12] | 100 to 1000 nM |
| O=C(ON1C(=O)CCC1=O)N1CCN(Cc2cccc(Oc3ccccc3)c2)CC1 [Example 7] | < 100 nM |
| CN1CC(=O)N(OC(=O)N2CCN(C(c3ccc(Cl)cc3)c3ccc(Cl)cc3)CC2)C1=O [Example 56] | 100 to 1000 nM |
| O=C(ON1C(=O)CCC1=O)N1CCC(C(O)(c2ccc3c(c2)OCO3)c2ccc3c(c2)OCO3)CC1 [Example 1] | 100 to 1000 nM |
| O=C(ON1C(=O)CNC1=O)N1CCC(CCc2ccc(Cl)cc2)CC1 [Example 48] | < 100 nM |

Qu. Reported IC50 for O=C(ON1C(=O)CNC1=O)N1CCN(C(c2ccc(Cl)cc2)c2ccc(Cl)cc2)CC1 [Example 46] : what is it?
Ans. 100 to 1000 nM

Qu. What about CC1CCCCN1C(=O)ON1C(=O)CCC1=O (stereo not drawn) [Example 10] ?
Ans. > 10000 nM

Qu. And what about the molecule O=C(ON1C(=O)CN(Cc2ccccc2)C1=O)N1CCC(CCc2ccc(Cl)cc2)CC1 [Example 50] ?
Ans. < 100 nM

Qu. Then what about the molecule O=C(ON1C(=O)CCC1=O)N1CCCC1 [Example 29] ?
Ans. > 10000 nM

---

# experimental_system: FAAH (Mus musculus)
# Sequence (O08914 1-579): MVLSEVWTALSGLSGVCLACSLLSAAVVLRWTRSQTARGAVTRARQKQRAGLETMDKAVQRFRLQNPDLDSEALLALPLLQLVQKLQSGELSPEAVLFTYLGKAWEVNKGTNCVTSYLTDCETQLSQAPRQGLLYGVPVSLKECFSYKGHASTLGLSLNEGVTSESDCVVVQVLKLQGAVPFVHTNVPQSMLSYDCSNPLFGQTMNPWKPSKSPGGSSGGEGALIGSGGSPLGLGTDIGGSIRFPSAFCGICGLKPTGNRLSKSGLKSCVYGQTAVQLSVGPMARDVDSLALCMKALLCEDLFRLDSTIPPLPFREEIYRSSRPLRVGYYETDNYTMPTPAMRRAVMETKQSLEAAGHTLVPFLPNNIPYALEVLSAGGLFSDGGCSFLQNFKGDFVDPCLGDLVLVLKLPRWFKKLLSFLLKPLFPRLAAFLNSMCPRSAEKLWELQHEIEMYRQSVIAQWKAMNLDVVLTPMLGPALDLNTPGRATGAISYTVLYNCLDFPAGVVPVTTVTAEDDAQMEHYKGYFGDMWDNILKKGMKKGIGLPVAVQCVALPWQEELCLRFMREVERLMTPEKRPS
# assay_comment: In vitro competitive ABPP, % inhibition at fixed concentration, FAAH
# Type: biochemical
# Parameters: from tissue
measured_quantity: inhibition at 1 µM

Consider the worked cases shown below.
| molecule | experimental_system | measured_value |
| --- | --- | --- |
| Cc1nc(-c2ccccc2F)ccc1CN1CCN(C(=O)ON2C(=O)CCC2=O)CC1 [Example 183] | FAAH (Mus musculus) | < 25% |
| O=C(ON1C(=O)CCC1=O)N1CCN(Cc2cc(C(F)(F)F)ccc2C(=O)N2CCCC2)CC1 [Example 204] | FAAH (Mus musculus) | < 25% |
| Cc1cnccc1-c1ccc(CN2CCN(C(=O)ON3C(=O)CCC3=O)CC2)c(F)c1 [Example 177] | FAAH (Mus musculus) | < 25% |
| CC1(C)CN(Cc2ccc(N3CCOCC3)cc2C(F)(F)F)CCN1C(=O)ON1C(=O)CCC1=O [Example 86] | FAAH (Mus musculus) | < 25% |
| O=C(ON1C(=O)CCC1=O)N1CCN(Cc2ccc(Cl)cc2N2CCN3CCC[C@@H]3C2)CC1 [Example 125] | FAAH (Mus musculus) | < 25% |

Qu. // inhibition at 1 µM lookup, key: O=C(ON1C(=O)CCC1=O)N1CCN(Cc2ccc(Cl)cc2N2CCC2)CC1 [Example 112]
Ans. < 25%

Qu. Again, but for Cc1cc(-c2ccc(CN3CCN(C(=O)ON4C(=O)CCC4=O)CC3)c(C)c2)cc(C)n1 [Example 113]
Ans. < 25%

Qu. Also, Cc1c(CN2CCN(C(=O)ON3C(=O)CCC3=O)CC2)cccc1C(=O)N1CCC1 [Example 207] please.
Ans. < 25%
